# methodNotes: Brain and plasma concentrations in mice after intraperitoneal administration (LC-MS-MS), non-compartmental analysis
# Type: in vivo
# statedConditions: male, Swiss-Webster, mouse, ip; plasma NCA, 10 mg/kg i.p.; read-out: t1/2 (converted)
Overview of reported half-life across a group of compounds:
metricName: half-life (h)

compound="N=C(N)Nc1ccc2[nH]c3c(c2c1)C[C@@]1(O)[C@H]2Cc4ccc(O)c5c4[C@@]1(CCN2CC1CC1)[C@H]3O5 [GNTI, 5’-guanidinonaltrindole]" valuemeasured=2.88
compound="Oc1ccc2c3c1O[C@H]1c4[nH]c5c(c4C[C@@]4(O)[C@@H](C2)N(CC2CC2)CC[C@]314)C[C@@]1(O)[C@H]2Cc3ccc(O)c4c3[C@@]1(CCN2CC1CC1)[C@H]5O4 [nor-BNI, norbinaltorphimine]" valuemeasured=8.46
